Source: the Deep4Chem optical property database

- Experiment Summary: solvent given as SMILES
- Experimental Parameters: in CC(C)O
Readout Kind: emission maximum (nm)

- Nc1ccc2c3c(cccc13)C(=O)c1ccccc1-2: 664.89
- CN(CC(O)c1cccc(O)c1)c1ccc([N+](=O)[O-])c(C2CC(c3cccc4ccccc34)=NN2c2ccccc2)c1 (stereo not given): 511
- Nc1ccc2c(c1)Cc1ccccc1-2: 369
- COc1ccc(/C=C2\OC(=O)c3ccccc32)cc1: 459.77
- NS(=O)(=O)c1ccc(N2N=C(c3ccc(O)cc3)CC2c2ccc(F)cc2)cc1 (stereo not given): 423
- CN(C)c1ccc(/C=C/c2nc3ccccc3s2)cc1: 493
- CN(C)c1ccc(/C=C/c2cc[n+](CCC[n+]3ccc(/C=C/c4ccc(N(C)C)cc4)cc3)cc2)cc1: 594
- CN(C)c1ccc(/C=C/C=C2\CC/C(=C\C=C\c3ccc(N(C)C)cc3)C2=O)cc1: 718
- COC(=O)C(Cc1ccc2oc(-c3ccc(N(C)C)cc3)nc2c1)NC(=O)OC(C)(C)C (stereo not given): 397
- Cc1ccc(/C=N/c2cc(C(C)C)c(O)cc2C)cc1: 416

###

The entries below come with measured emission maximum values attached.
- Experiment Summary: solvent given as SMILES
- Experimental Parameters: in ClC(Cl)Cl
Readout Kind: emission maximum

• CC[N+](CC)=c1ccc2c(-c3ccccc3C(=O)O)c3cc4c(-c5ccccc5C(=O)O)c5ccc(=[N+](CC)CC)cc-5oc4cc3oc-2c1 = 622 nm
• CCC1=C(C)C2=C(c3cc(C4=C5C(C)=C(CC)C(C)=[N+]5[B-](F)(F)n5c(C)c(CC)c(C)c54)cc(C4=C5C(C)=C(CC)C(C)=[N+]5[B-](F)(F)n5c(C)c(CC)c(C)c54)c3)c3c(C)c(CC)c(C)n3[B-](F)(F)[N+]2=C1C = 571 nm
• NCc1ccc2ccc3cccc4ccc1c2c34 = 376 nm

###

- Experiment Summary: solvent given as SMILES
- Experimental Parameters: in CCOCC
Threshold-based label: emission maximum under 400 nm gives label 1, emission maximum not under 400 nm gives label 0.

• CN(C)c1ccc(/C=C/C=C2\CC/C(=C\C=C\c3ccc(N(C)C)cc3)C2=O)cc1 = label 0
• COc1ccc(/C=C2\OC(=O)c3ccccc32)cc1 = label 0
• COC(=O)C(Cc1ccc2oc(-c3ccc(N(C)C)cc3)nc2c1)NC(=O)OC(C)(C)C (stereo not given) = label 1
• CN(C)c1ccc(/C=C/c2nc3ccccc3s2)cc1 = label 0

###

- Experiment Summary: solvent given as SMILES
- Experimental Parameters: in C1CCOC1
# maps each entry to its emission maximum
Readout Kind: emission maximum (nm)

* c1ccc2cc3ccccc3cc2c1 | 397
* C(=C\c1ncnc2ccccc12)/c1ccc(-c2ccc(N(c3ccccc3)c3ccccc3)cc2)cc1 | 572
* CC(C)c1cc(C(C)C)c(B2c3cc(N4c5ccccc5Oc5ccccc54)ccc3N(c3ccccc3)c3ccc(N4c5ccccc5Oc5ccccc54)cc32)c(C(C)C)c1 | 554.08
* Cc1ccc(C2CC(c3ccc(O)cc3)=NN2c2ccc(S(N)(=O)=O)cc2)cc1 (stereo not given) | 417
* N#CC1=c2c3cccc4c(Br)ccc(c43)n2[B-](F)(F)[n+]2ccccc21 | 545
* CCOC(=O)COc1ccc(/C=C/C2=C3c4ccccc4C(c4ccc[nH]4)=[N+]3[B-](F)(F)n3ccc(C)c32)cc1 | 625
* CC(C)(C)c1ccc(-c2cc3c4c(c2)CCc2cc(-c5ccc(C(C)(C)C)cc5)cc(c2-4)CC3)cc1 | 384.87
* CN(C)CCN(Cc1c2ccccc2cc2ccccc12)c1ccc([N+](=O)[O-])cc1[N+](=O)[O-] | 394
* CCCCCCc1ccc2c3c(ccc2c1)O[B-](F)(F)[N+](c1ccc([N+]2=Cc4c(ccc5cc(CCCCCC)ccc45)O[B-]2(F)F)cc1)=C3 | 505
* CC1(C)CC(/C=C/c2cn(-c3ccccc3)nc2-c2ccccc2)=CC(=C(C#N)C#N)C1 | 556

###

- Experiment Summary: solvent given as SMILES
- Experimental Parameters: in Cc1ccccc1
# if value of emission maximum reaches 500 nm, tag Fulfilled; if it stays below, tag Not fulfilled

• Nc1ccc2c3c(cccc13)C(=O)c1ccccc1-2 = Fulfilled
• CC1(C)c2ccccc2N(c2ccc(-c3cnc(C#N)nc3)cc2)c2ccccc21 = Fulfilled
• CN(C)c1ccc(-c2ccc(-c3ccc(N(C)C)cc3)c3nc(-c4ccccc4)c(-c4ccccc4)nc23)cc1 = Fulfilled
• c1ccc(-c2nc(-c3ccccc3)nc(-c3ccc(N4c5ccccc5C5(c6ccccc64)c4ccccc4C4(c6ccccc6Sc6ccccc64)c4ccccc45)cc3)n2)cc1 = Not fulfilled
• Cc1ccc(C2=C3C=CC(C#Cc4ccccc4)=[N+]3[B-](F)(F)n3c(Cl)ccc32)cc1 = Fulfilled
• COc1ccc(-c2csc(/C(C#N)=C\Nc3ccc(C#N)cc3)n2)cc1 = Not fulfilled
• CC(C)(C)c1ccc(-c2nc3c4ccc(-c5ccccc5)cc4c4cc(-c5ccccc5)ccc4c3n2-c2ccc(C(C)(C)C)cc2)cc1 = Not fulfilled
• CCC1(CC)c2cc(/C=C/c3ccc(/C=C/c4ccc5c(c4)C(CC)(CC)c4cc(N6c7ccccc7Sc7ccccc76)ccc4-5)cc3)ccc2-c2ccc(N3c4ccccc4Sc4ccccc43)cc21 = Not fulfilled
• CCC1=C(C)C2=Cc3c4ccccc4c4n3[B-](c3ccccc3)(Oc3ccccc3-4)[N+]2=C1C (stereo not given) = Fulfilled
• CC1(C)c2ccccc2N(c2ccccc2)c2ccc(-c3ccc(S(=O)(=O)c4ccc(-c5ccc6c(c5)C(C)(C)c5ccccc5N6c5ccccc5)cc4)cc3)cc21 = Not fulfilled
• CC(C)(C)c1ccc(-c2nc3c4ccc(-c5cc6ccccc6c6ccccc56)cc4c4cc(-c5cc6ccccc6c6ccccc56)ccc4c3n2-c2ccc(C(C)(C)C)cc2)cc1 = Not fulfilled
• Cc1ccc2c(c1)C(C)(C)c1cc(C)ccc1N2c1ccc2c(c1)C(C)(C)c1cc(N3c4ccc(C)cc4C(C)(C)c4cc(C)ccc43)ccc1S2(=O)=O = Not fulfilled
• CCC1=C(C)C2=Cc3c4ccccc4c4n3[B-](c3ccncc3)(Oc3ccccc3-4)[N+]2=C1C=Cc1ccc(OC)cc1 (stereo not given) = Fulfilled
• CC1(C)c2cccc(-c3nc(-c4ccccc4)nc(-c4ccccc4)n3)c2Oc2c(-n3c4ccccc4c4ccccc43)cccc21 = Not fulfilled
• Cc1csc2[n+]1[B-](F)(F)OC(c1ccc(N(C)C)cc1)=N2 = Not fulfilled
• COc1ccc2c(c1)sc1[n+]2[B-](F)(F)OC(c2ccc(N(C)C)cc2)=N1 = Not fulfilled
• N#Cc1nc(-n2c3ccccc3c3ccccc32)cc(-n2c3ccccc3c3ccccc32)n1 = Fulfilled
• CCCCCCCCCCCCOc1cc(/C=C/c2ccc3c(c2)C(CC)(CC)c2cc(N4c5ccccc5Sc5ccccc54)ccc2-3)c(OCCCCCCCCCCCC)cc1/C=C/c1ccc2c(c1)C(CC)(CC)c1cc(N3c4ccccc4Sc4ccccc43)ccc1-2 = Not fulfilled
• Cc1cc2cc(N3c4ccccc4Oc4ccccc43)ccc2c(=O)o1 = Fulfilled
• CCC1(CC)c2cc(/C=C/c3cc(C#N)c(/C=C/c4ccc5c(c4)C(CC)(CC)c4cc(N6c7ccccc7Sc7ccccc76)ccc4-5)cc3C#N)ccc2-c2ccc(N3c4ccccc4Sc4ccccc43)cc21 = Fulfilled
• CCN(CC)c1ccc2cc(/C=C/C3=CC(/C=C/c4cc5ccc(N(CC)CC)cc5oc4=O)=[O+][B-](F)(F)O3)c(=O)oc2c1 = Fulfilled
• CC1(C)c2ccccc2N(c2ccc(-c3ccc4c(c3)c3cc(-c5ccc(N6c7ccccc7C(C)(C)c7ccccc76)cc5)ccc3c3nc(C#N)c(C#N)nc43)cc2)c2ccccc21 = Fulfilled
• CC(C)(C)c1ccc(C2=c3c(c4ccc(C(C)(C)C)cc4c4cc(C(C)(C)C)ccc34)=[N+]3C2=C(c2ccccc2)c2c(-c4ccc(C(C)(C)C)cc4)c4c5ccc(C(C)(C)C)cc5c5cc(C(C)(C)C)ccc5c4n2[B-]3(F)F)cc1 = Fulfilled

###

- Experiment Summary: solvent given as SMILES
- Experimental Parameters: in CS(C)=O
Respond with true (1) for emission maximum values of 600 nm and above, false (0) for values below.

* CCCCCCCCC1(CCCCCCCC)c2cc(C#CC#Cc3ccc(N(c4ccccc4)c4ccccc4)cc3)ccc2-c2ccc(C=O)cc21 | false (0)
* CCN(CC)c1ccc(-c2nc3c(nc2-c2ccc(B(c4c(C)cc(C)cc4C)c4c(C)cc(C)cc4C)cc2)c2ccccc2n3C)cc1 | false (0)
* CCCCCCC(CCCCCC)n1c(=O)c2c3ccc4cccc5c6cccc7ccc(c2c1=O)c(c76)c3c45 | false (0)
* CC1(C)C(/C=C/C=C/c2cc3ccc(O)cc3oc2=O)=[N+](CCCS(=O)(=O)[O-])c2ccccc21 | true (1)
* CCN(CC)c1ccc2c(c1)oc(=O)c1c(=O)oc3c(C)c4oc(=O)c5c(=O)oc6cc(N(CC)CC)ccc6c5c4cc3c12 | false (0)
* CN(C)c1ccc(/C=C/c2cnc3ccccc3n2)cc1 | true (1)
